# System: Veillonella
# protocol.notes: Antimicrobial activity against Veillonella spp. under anaerobic conditions after 44 hrs by CLSI-M11-47 protocol based agar dilution method
# Assay type: functional
parameter: MIC90 (µg/mL)
Numbers only, in µg/mL.

Solved cases (3 shown):
| line.notation | measured.value |
| --- | --- |
| CCC[C@@H]1C[C@@H](C(=O)N[C@@H]([C@H]2O[C@H](SC)[C@H](O)[C@@H](O)[C@H]2O)[C@H](C)Cl)N(C)C1 | 128 |
| Cc1ncc([N+](=O)[O-])n1CCO | 8 |
| CCO/N=C(\C(=O)N[C@@H]1C(=O)N2C(C(=O)[O-])=C(Sc3nc(-c4cc[n+](C)cc4)cs3)CS[C@H]12)c1nsc(NP(=O)(O)O)n1 | 0.5 |

Dear colleague, please send me the reported MIC90 for CO/N=C(\C(=O)N[C@@H]1C(=O)N2C(C(=O)O)=C(CSc3nc(=O)c(O)nn3C)CS[C@H]12)c1csc(N)n1 when you can.
8
